Entry source: the supplement of paper PMC11061612

system: MOLM-13 (Acute Myeloid Leukemia); assay: Bliss excess, mean over the matrix (fraction); higher = more synergy;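 also: after 72 h of two-drug dosing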
Assignment: determine reported Bliss excess for the given molecules.
Give your answer as a number; write no unit.

Q: What value of Bliss excess has been reported for the following molecule? Cn1cnc2c(F)c(Nc3ccc(Br)cc3Cl)c(C(=O)NOCCO)cc21 [Selumetinib] + CC(C)n1c(=O)n(C)c2cnc3cc(F)c(-c4ccc(OCCCN5CCCCC5)nc4)cc3c21 [AZD1390] (first compound max 10 µM, 7x7, partner max 0.3 µM)
Result: -0.0306

Q: How about CC(=O)c1c(C)c2cnc(Nc3ccc(N4CCNCC4)cn3)nc2n(C2CCCC2)c1=O [Palbociclib] + Cn1cnc2c(F)c(Nc3ccc(Br)cc3Cl)c(C(=O)NOCCO)cc21 [Selumetinib] (first compound max 10 µM, 7x7, partner max 10 µM) ?
Result: 0.0262

Q: Try this molecule too: CN(CCO)CC[C@H](CSc1ccccc1)Nc1ccc(S(=O)(=O)NC(=O)c2ccc(N3CCC([C@@H](O)c4ccccc4-c4ccc(Cl)cc4)CC3)cc2)cc1S(=O)(=O)C(F)(F)F [AZD4320] + CN(C)CCCOc1ccc(-c2ccc3ncc4c(c3c2)n(C2CCOCC2)c(=O)n4C)cn1 [AZD0156] (first compound max 1 µM, 7x7, partner max 1 µM)
Result: -0.0649
